target: DCN1-UBC12 interaction (Homo sapiens (Human)); experiment: biochemical; type: binding; conditions: read-out: TR-FRET IC50
pIC50: −log10 of the molar value.
parameter_measured: pIC50

CCN1CCC(NC(=O)Nc2cc(Cl)ccc2Cl)CC1: < 4.17
Cc1ccc(NC(=O)NC2CCN(Cc3ccccc3)CC2)cc1Cl: < 4.17
CCCC(C)N1CCC(N(Cc2ccccc2)C(=O)Nc2ccc(OC)cc2C)CC1 (stereo not drawn): < 4.16
COc1cc(SC)ccc1C(=O)N1CCC(c2nc3ccccc3s2)CC1: < 4.17
CCCC(C)N1CCC(N(Cc2ccccc2)C(=O)Nc2ccc(F)cc2Br)CC1 (stereo not drawn): < 4.06
CC1CC(NC(=O)NC2CCCNC2=O)CCN1Cc1ccccc1 (stereo not drawn): < 4.24

* * *

biological target: DCN1-UBC12 interaction (Homo sapiens (Human)); test: biochemical; format: binding; details: read-out: TR-FRET IC50
pIC50: −log10 of the molar value.
Catalogue of molecules with associated pIC50
parameter_measured: pIC50

O=C(NC1CCN(Cc2ccccc2)CC1)NC1CCC2(CC1)OCCO2: < 3.78
O=C(Nc1cc(F)cc(C(F)(F)F)c1)N(Cc1ccccc1)C1CCN(Cc2cc[nH]n2)CC1: < 4.65
O=C(Nc1cccc(CN2CCOCC2)c1)NC1CCN(Cc2ccccc2)CC1: < 4.16
CC(=O)N1CCC(N(Cc2ccco2)C(=O)Nc2ccccc2Br)CC1: < 4.17
O=C(Nc1ccc2c(c1)OCCO2)N(Cc1ccco1)C1CCN(Cc2ccccc2)CC1: < 4.13

* * *

target: DCN1-UBC12 interaction (Homo sapiens (Human), UniProt Q96GG9); assay: biochemical; type: binding; conditions: Table 6, commercial compounds; read-out: TR-FRET IC50
Sequence (Q96GG9 60-248 limits assumed): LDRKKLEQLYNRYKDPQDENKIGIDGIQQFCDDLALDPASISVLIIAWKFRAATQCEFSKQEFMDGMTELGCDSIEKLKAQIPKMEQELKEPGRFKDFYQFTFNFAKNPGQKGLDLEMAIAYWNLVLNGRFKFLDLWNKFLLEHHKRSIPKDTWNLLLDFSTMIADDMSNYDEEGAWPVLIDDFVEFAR
Catalogue of molecules with associated IC50
parameter_measured: IC50

CC(C)N1CCN(C(=O)c2cnn(-c3nccc(-c4cccs4)n3)c2C2CC2)CC1: > 67.6 µM
COCCN1CCN(C(=O)c2cnn(-c3ncc(C)c(-c4cccs4)n3)c2C2CC2)CC1: > 67.6 µM
COCCN(C)C(=O)c1cnn(-c2nccc(-c3cccs3)n2)c1C: > 67.6 µM
Cc1cnc(-n2ncc(C(=O)N3CCN(C(C)C)CC3)c2C2CC2)nc1-c1cccs1: > 67.6 µM
CCCN1CCN(C(=O)c2cnn(-c3nccc(-c4cccs4)n3)c2C(C)C)CC1 [E1]: 1.07 µM
CCN(CC)CCN(CC)C(=O)c1cnn(-c2nccc(-c3cccs3)n2)c1C1CC1 [E2]: 4.53 µM
C=CCN(CC=C)C(=O)c1cnn(-c2nccc(-c3cccs3)n2)c1COC: > 67.6 µM
CCN1CCN(C(=O)c2cnn(-c3ncc(C)c(-c4cccs4)n3)c2C2CC2)CC1: > 67.6 µM
CCN1CCN(C(=O)c2cnn(-c3nccc(-c4cccs4)n3)c2C(C)C)CC1: 13.1 µM
CCN(CC)CCNC(=O)c1cnn(-c2nccc(-c3cccs3)n2)c1COC: > 67.6 µM

* * *

molecular target: DCN1-UBC12 interaction (Homo sapiens (Human), UniProt Q96GG9); assay: biochemical; type: binding; conditions: read-out: TR-FRET IC50
pIC50: −log10 of the molar value.
Catalogue of compounds with associated pIC50
parameter_measured: pIC50

CSc1cccc(NC(=O)NC2CCN(Cc3ccccc3)CC2)c1: < 4.19
O=C(Nc1ccccc1C(F)(F)F)NC1CCN(Cc2ccccc2)CC1: < 4.15
CC1CN(Cc2ccccc2)CC(C)C1NC(=O)Nc1nccs1 (stereo not drawn): 4.73
CC(c1ccccn1)N1CCC(N(Cc2ccccc2)C(=O)Nc2cc(F)cc(C(F)(F)F)c2)CC1 (stereo not drawn): 5.34
O=C(Nc1cccc(C(F)(F)F)c1)NC1CCN(Cc2ccccc2Cl)CC1: < 4.11
O=C(c1cccc(C(F)(F)F)c1)N(Cc1ccccc1)C1CC2CCC(C1)N2Cc1ccccc1 (stereo not drawn): < 4.39
CCCC(C)N1CCC(N(Cc2ccccc2)C(=O)Nc2ccccc2F)CC1 (stereo not drawn): < 4.09
O=C(Nc1cccc(F)c1)NC1CCN(Cc2ccccc2)CC1: < 4.17
O=C(Nc1cc(F)cc(C(F)(F)F)c1)N(Cc1ccccc1)C1CCN(Cc2ccc[nH]2)CC1: < 4.63
O=C(Nc1cccc(SC(F)(F)F)c1)NC1CCN(Cc2ccccc2)CC1: 4.78
CCN1CCC(N(Cc2ccco2)C(=O)Nc2ccc(OC)c(OC)c2)CC1: < 4.17
CCCC(C)N1CCC(N(Cc2ccccc2)C(=O)Nc2ccc(OC)cc2OC)CC1 (stereo not drawn) [A197]: < 3.96
O=C(CN1CCN(Cc2ccccc2)CC1)Nc1cc(C(F)(F)F)ccc1Cl: < 4.13
FC(F)(F)c1cccc(CNC2CCN(Cc3ccccc3)CC2)c1: < 4.26
CC(=O)N1CCC(N(Cc2ccco2)C(=O)Nc2cccc(C(F)(F)F)c2)CC1: 4.70
CCOc1cc(C(=O)N2CCCC(c3nc4ccccc4s3)C2)cc(Br)c1OC (stereo not drawn): < 4.17
CCCCN1CCC(N(Cc2ccccc2)C(=O)Nc2ccc(F)c(Cl)c2)CC1: 5.96
CCCC(C)N1CCC(N(Cc2ccccc2)C(=O)Nc2ccccc2C(N)=O)CC1 (stereo not drawn): < 4.21
CCCN1CCC(N(CCC)C(=O)Nc2cccc(C(F)(F)F)c2)CC1: 4.98
CCCC(C)N1CCC(N(Cc2ccccc2)C(=O)Nc2cccc(F)c2C)CC1 (stereo not drawn): 5.25
CCCCN1CCC(N(Cc2ccccc2)C(=O)Nc2cccnc2)CC1: < 4.15
CCCC(C)N1CCC(N(Cc2ccccc2)C(=O)Nc2ccc(Br)cc2Cl)CC1 (stereo not drawn): 5.65
CCCCN1CCC(N(Cc2ccccc2)C(=O)Nc2cc(F)cc(C(F)(F)F)c2)CC1: 6.59
C=CC(=O)NCc1ccccc1CN(C(=O)Nc1cccc(C(F)(F)F)c1)C1CCN(C(C)CCC)CC1 (stereo not drawn) [drawing 846]: > 8.00
CCCCN1CCC(N(Cc2ccccc2)C(=O)Nc2cc(C(F)(F)F)cc(C(F)(F)F)c2)CC1: < 4.17
CC(c1ccc2c(c1)OCO2)N1CCC(N(Cc2ccccc2)C(=O)Nc2cc(F)cc(C(F)(F)F)c2)CC1 (stereo not drawn): 5.62
Cn1c(CN2CCC(N(Cc3ccccc3)C(=O)Nc3cc(F)cc(C(F)(F)F)c3)CC2)nc2ccccc21: < 4.69

* * *

biological target: DCN1-UBC12 interaction (Homo sapiens (Human), UniProt Q96GG9); test: biochemical; type: binding; conditions: read-out: TR-FRET IC50
parameter_measured: IC50

C#CCCCN1CCC(N(Cc2ccccc2NC(=O)CC)C(=O)Nc2cccc(C(F)(F)F)c2)CC1 [A198]: > 12.9 µM
CCCC(C)N1CCC(N(Cc2ccccc2)C(=O)Nc2cc(OC)ccc2Cl)CC1 (stereo not drawn) [A288]: > 72.9 µM
O=C(Nc1cc(F)cc(C(F)(F)F)c1)N(Cc1ccccc1)C1CCN(Cc2csc3ccccc23)CC1 [A212]: > 22.5 µM
CCCC(C)N1CCC(N(Cc2ccccc2)C(=O)Nc2ccc(F)c(-c3nc4ccccc4o3)c2)CC1 (stereo not drawn) [A268]: > 67.1 µM
CCCC1CCC(N(Cc2ccccc2)C(=O)Nc2cccc(C(F)(F)F)c2)CC1 (stereo not drawn) [A232]: > 38.7 µM
Cc1cc(NC(=O)NC2C(C)CN(Cc3ccccc3)CC2C)no1 (stereo not drawn) [B121]: > 81.9 µM

* * *

molecular target: DCN1-UBC12 interaction (Homo sapiens (Human), UniProt Q96GG9); assay: biochemical; type: binding; conditions: read-out: TR-FRET IC50
pIC50: −log10 of the molar value.
Catalogue of compounds with associated pIC50
parameter_measured: pIC50

CC1CC(NC(=O)Nc2cnn(C)c2)CCN1Cc1ccccc1 (stereo not drawn): < 4.19
CC(=O)N1CCC(N(Cc2ccc(C)o2)C(=O)Nc2cc(Cl)ccc2Cl)CC1: < 4.17
Cn1ccnc1CN1CCC(N(Cc2ccccc2)C(=O)Nc2cc(F)cc(C(F)(F)F)c2)CC1: < 4.54
O=C(Nc1ccncc1[NH2+][O-])NC1CCN(Cc2ccccc2)CC1: < 4.10
C#CCCCN1CCC(N(Cc2ccccc2NC(=O)CC)C(=O)Nc2ccc(Cl)c(Cl)c2)CC1 [A199]: < 4.84
CCCN1CCC(N(CCOC)C(=O)Nc2cccc(C(F)(F)F)c2)CC1: < 4.23
O=C(NCC(=O)N1CCC(c2nc3ccccc3s2)CC1)c1cccc(F)c1: < 4.17
O=C(Nc1cccc(C(F)(F)F)c1)N1CCN(C(c2ccccc2)c2ccccc2)CC1: < 4.20
CCOc1ccc(NC(=O)N(Cc2ccco2)C2CCN(CC)CC2)cc1: < 4.17

* * *

target: DCN1-UBC12 interaction (Homo sapiens (Human), UniProt Q96GG9); test: biochemical; type: binding; settings: read-out: TR-FRET IC50
pIC50: −log10 of the molar value.
Catalogue of molecules with associated pIC50
parameter_measured: pIC50

CC1CN(Cc2ccccc2)CCC1N(C)C(=O)NC1C(=O)N(c2ccccc2)N(C)C1C (centres unmarked): < 4.55
Cc1ccc(CN2CCC(N(Cc3ccccc3)C(=O)Nc3cc(F)cc(C(F)(F)F)c3)CC2)o1: < 4.62
CCOC(=O)Cc1ccc(NC(=O)N(Cc2ccco2)C2CCN(C(C)=O)CC2)cc1: < 4.17
CC(Cc1cccc(C(F)(F)F)c1)NC1CCN(Cc2ccccc2)CC1 (centres unmarked): < 4.21
CCCCN1CCC(N(Cc2ccccc2)C(=O)Nc2cnn(C)c2)CC1: < 4.14

These entries and their values trace back to patent US11116757B2.
